target: HLA A2.1 (Homo sapiens, UniProt P04439, D140Y/D185E/D98H/E176V/E277Q/G131W/G231S/I119V/I121R/I166T/I218V/L300P/L318F/N151K/N90K/P208A/P217A/Q86G/Q94H/R138H/R169H/T345S); assay: T2 cell stabilization assay; format: binding; conditions: peptide tested 0.1 μM-100 μM; flow cytometry with BB7.2; (n.s.) = not stable
This section presents sequences with their documented Minimum Concentration of Peptide to Stabilize A2 on T2 cells values.
Give the quantity in µM, number only.

YICSQQDTL [AFP28, residues 287-295 of hAFP] :: 50
KMVKDALTAI [AFP64, residues 65-74 of hAFP] :: 100
SLVVDETYV [AFP17, residues 514-522 of hAFP] :: 1.0
QLTSSELMAI [AFP14, residues 441-450 of hAFP] :: 50.0
FQKLGEYYL [AFP34, residues 419-427 of hAFP] :: 100
TLSNKITEC [AFP60, residues 294-302 of hAFP] :: 50

Next, consider the following sequence.
Can you look up the measured Minimum Concentration of Peptide to Stabilize A2 on T2 cells of YIQESQALA [AFP13, residues 404-412 of hAFP] for me?
10.0

* * *

target: HLA A2.1 (Homo sapiens, UniProt P04439, D140Y/D185E/D98H/E176V/E277Q/G131W/G231S/I119V/I121R/I166T/I218V/L300P/L318F/N151K/N90K/P208A/P217A/Q86G/Q94H/R138H/R169H/T345S); test: EBV lymphoblastoid cell off-kinetics assay; format: binding; conditions: pulsed at 200 μM for 1 hour, followed 0, 2, 4 and 6 hours at 37° C.; (n.s.) = not stable
PROPERTY: Time of Peptide Stability on Lymphoblastoid Cells

KELRESSLL [AFP16, residues 211-219 of hAFP] :: 2 h
ILLWAARYD [AFP18, residues 178-186 of hAFP] :: >6 h
QLTSSELMAI [AFP14, residues 441-450 of hAFP] :: >2 h
FVQEATYKF [AFP8, residues 54-62 of hAFP] :: >2 h
KMVKDALTAI [AFP64, residues 65-74 of hAFP] :: (n.s.)

Time of Peptide Stability on Lymphoblastoid Cells for SLVVDETYV [AFP17, residues 514-522 of hAFP] ?
(n.s.)

Endpoint output: Time of Peptide Stability on Lymphoblastoid Cells of YIQESQALA [AFP13, residues 404-412 of hAFP] . Value?
>2 h

Reported Time of Peptide Stability on Lymphoblastoid Cells for FQKLGEYYL [AFP34, residues 419-427 of hAFP] : what is it?
(n.s.)

Please look up its Time of Peptide Stability on Lymphoblastoid Cells: TLSNKITEC [AFP60, residues 294-302 of hAFP]
(n.s.)

I'd like to know its Time of Peptide Stability on Lymphoblastoid Cells. The sequence in question is YICSQQDTL [AFP28, residues 287-295 of hAFP]
2 h

* * *

tested on: AFP+/HLA A2.1+ HepG2; experiment: 4 hour 51Cr-release assay of peptide-generated CTL against HepG2; format: cell-based, human; details: E:T 10:1
Where no end group is shown, it is not given here.
Below, each entry is listed alongside its reported AFP+/HLA A2.1+ HepG2 Cytotoxicity.
I only need the number, in %, no unit after it.

Reference set (4 entries):
GVALQTMKQ [AFP49] :: 17
LLNFTESRT [AFP7] :: 6
FQAITVTKL [AFP45] :: 9
MKWVESIFL [AFP38] :: 0

Pending sequence:
So what does the record say about AFP+/HLA A2.1+ HepG2 Cytotoxicity for PVNPGVGQC [AFP39] ?
12
